Tested on: SF-539 CNS
Experiment: NCI tumour cell line growth inhibition, 48 h
// reported TGI per item

- Molecule: "N#CC(C#N)=C/C=C(\\Sc1c(Cl)c(Cl)nc(Cl)c1Cl)c1ccc(Cl)cc1"
  Unit name: "µM"
  Censor symbol: "="
  TGI: 41.8
- Molecule: "CCCN(CCC)c1ccc(/C=C/c2ccc3cc(OCC)ccc3n2)cc1"
  Unit name: "µM"
  Censor symbol: ">"
  TGI: 100
- Molecule: "CN(C)CCCNc1ccc2c(=O)n(CCN(C)C)c(=O)n3c4ccccc4c(=O)c1c23"
  Unit name: "µM"
  Censor symbol: "="
  TGI: 2.02
- Molecule: "COc1ccc(S(=O)(=O)NC(CCC(=O)NN)C(=O)NN)cc1 (centres undefined)"
  Unit name: "µM"
  Censor symbol: ">"
  TGI: 100

* * *

Tested on: SR leukemia
Assay: NCI tumour cell line growth inhibition, 48 h; in the data active = GI50 below about 0.43 µM; inactive = the rest
Classes used: Y (active), N (inactive)

- Compound: "COc1ccc(-c2cc(-c3cccn3C)c(C#N)c(=O)[nH]2)cc1OC"
  Class assignment: "N"
- Compound: "COc1cc2ncn(-c3cc(O[C@@H](C)c4ccccc4Cl)c(C(N)=O)s3)c2cc1OC"
  Class assignment: "N"
- Compound: "NC1CCC(Nc2nc(NCc3ccc(-c4ccccc4O)nc3)c3ncn(C4CCCC4)c3n2)CC1 (centres undefined)"
  Class assignment: "Y"
- Compound: "Cc1ccc2c(-c3ccnc(Nc4ccccc4)n3)c(-c3ccc(F)cc3)nn2n1"
  Class assignment: "N"

* * *

Test system: SNB-75 CNS
Experiment: NCI tumour cell line growth inhibition, 48 h

- Compound: "CN=c1c2c(c3[nH]c4ccccc4c4cnc1c34)NCCC2=O"
  TGI: "> 10 µM"
- Compound: "CCCSc1ccc2[nH]c(/N=C/c3ccccc3)cc2c1"
  TGI: "> 100 µM"
- Compound: "CC(C)(C)OCC1NC(=O)[C@@H]2Cc3c([nH]c4ccccc34)C(c3ccccc3)N2C1=O (stereo partly drawn)"
  TGI: "> 50 µM"

* * *

System: SNB-75 CNS
Test: NCI tumour cell line growth inhibition, 48 h

- Compound: "CC(=C/C=C/C=C(C)\\C=C\\C=C(\\C)C(=O)O)/C=C/C=C(/C)C(=O)O"
  TGI: "> 100 µM"
- Compound: "O=S(=O)(c1ccccc1)C(c1ccc2ccccc2n1)S(=O)(=O)c1ccccc1"
  TGI: "> 100 µM"
- Compound: "COc1ccc(NC([Se])=NC23CC4CC(CC(C4)C2)C3)cc1"
  TGI: "4.5 µM"
- Compound: "CS(=O)(=O)CCNCc1ccc(-c2ccc3ncnc(Nc4ccc(OCc5ccccc5)c(Br)c4)c3c2)o1"
  TGI: "> 25 µM"
- Compound: "COc1cc(/C=C2\\N=C(c3ccccc3)N(c3nc4cc(C)c(C)cc4s3)C2=O)ccc1O"
  TGI: "> 100 µM"
- Compound: "COc1ccccc1C(O)(c1ccccc1)C(O)(c1ccccc1)c1ccccc1OC (centres undefined)"
  TGI: "> 100 µM"
- Compound: "O=C(c1ccccc1)c1c(-c2ccccc2)sc2nc3ccccc3nc12"
  TGI: "85.6 µM"
- Compound: "Cc1ccc(Cc2cnc(NC(=O)/C=C/c3cccc(C)c3)s2)cc1"
  TGI: "0.845 µM"
- Compound: "CC1=CC[C@H](C(C)C)C(C(O)[C@@H](C)O[Si](c2ccccc2)(c2ccccc2)C(C)(C)C)C1=O (some centres undefined)"
  TGI: "54.4 µM"
- Compound: "CC1(C)CCc2c(c(N=Nc3ccc(S(N)(=O)=O)cc3)c3ccccc3c2O)O1"
  TGI: "16.6 µM"
- Compound: "CC(=O)[C@@H]1C/C(=C\\OCc2ccccc2)O[C@H]1C"
  TGI: "> 100 µM"
- Compound: "Nc1c2c(c(O)c3c1=C(CO)C=N3)=NCCS2"
  TGI: "0.306 µM"
- Compound: "C1CCCCC2(CCCCCCCCC3(CCC1)OCCO3)OCCO2"
  TGI: "> 100 µM"
- Compound: "CNC(=S)NC(=O)c1c(Cl)n(C(=O)OC(C)(C)C)c2ccccc12"
  TGI: "> 100 µM"
- Compound: "COC(=O)c1cc2c3ccccc3n3c(=O)c4cc5ccccc5nc4c(n1)c23"
  TGI: "> 100 µM"
- Compound: "CO[C@@H]1C[C@H]2[C@@H]3CC[C@H]([C@@H](C)CO)[C@@]3(C)CC[C@@H]2[C@@]2(C)CC[C@H]3C[C@]312"
  TGI: "> 100 µM"
- Compound: "O=C1CCCCCCCCCCC1CCCCCBr (centres undefined)"
  TGI: "49.8 µM"
- Compound: "O=c1cc(N2CCN(CCCCCOc3cc(O)c4c(=O)cc(-c5ccccc5)oc4c3)CC2)c2ccccc2o1"
  TGI: "> 100 µM"
- Compound: "COc1cc2ncn(-c3cc(O[C@@H](C)c4ccccc4Cl)c(C(N)=O)s3)c2cc1OC"
  TGI: "> 25 µM"
- Compound: "N#Cc1c(=O)c2ccccc2n2c1[nH]c1ccccc12"
  TGI: "> 100 µM"
- Compound: "Cc1c(S(=O)(=O)O)ccc(N=Nc2c(O)c(C(=O)O)cc3ccccc23)c1Cl"
  TGI: "> 100 µM"
- Compound: "CC1=C[C@]2(O)C(=O)[C@H](C)C[C@H]3[C@@H](CC[C@@](C)(O)/C=C\\2C1=O)C3(C)C"
  TGI: "> 100 µM"
- Compound: "Cc1cc(O)cc2c1[C@]1(C)CCC3C(C)(C)CCC[C@]3(C)[C@H]1C2 (some centres undefined)"
  TGI: "34.2 µM"
- Compound: "COc1ccc(/C=C2\\CN(C)C/C(=C\\c3ccc(OC)cc3)C2=O)cc1"
  TGI: "> 100 µM"
- Compound: "CC(O)c1cc2c(s1)C(=O)c1ccsc1C2=O (centres undefined)"
  TGI: "0.166 µM"
- Compound: "Cc1ccc(N2C(=O)C=C(C3=C(O)C(=O)N(c4ccc(C)cc4)C3=O)C2=O)cc1"
  TGI: "> 100 µM"
- Compound: "O=C(Nc1ccc(Cl)cc1Cl)C1C(=O)C(=O)N(c2ccc(Cl)cc2Cl)C1=O (centres undefined)"
  TGI: "> 100 µM"
- Compound: "CCOC(=O)CCC(NC(=O)c1ccc(Oc2nc3ccccc3nc2-c2ccccc2)cc1)C(=O)OCC (centres undefined)"
  TGI: "26.2 µM"
- Compound: "O=C(CCc1nnc2s/c(=C\\c3ccc(Cl)c(Cl)c3)c(=O)n12)Nc1ccc(Cl)c(Cl)c1"
  TGI: "> 100 µM"
- Compound: "O=C(CC(C(=O)c1cccs1)c1cccs1)c1ccsc1 (centres undefined)"
  TGI: "> 100 µM"
- Compound: "C1CSCCSCCSCCSC1"
  TGI: "> 100 µM"
- Compound: "COc1ccc(N2C(=O)[C@H]3[C@H]4CC(C(C)(C)C)CC[C@H]4c4c(n(C)c5ccccc45)[C@H]3C2=O)cc1 (some centres undefined)"
  TGI: "> 100 µM"
- Compound: "Nc1nc(N)c2cc(-c3ccccc3)cnc2n1"
  TGI: "17.3 µM"
- Compound: "CC(C)OP(=O)(OC(C)C)c1nc(-c2ccccc2)n(-c2ccc([N+](=O)[O-])cc2)n1"
  TGI: "> 100 µM"

* * *

// reported TGI per item
System: SF-539 CNS
Experiment: NCI tumour cell line growth inhibition, 48 h

- Molecule: "Nc1nc(Cl)c(/C=N\\O)c(NCC2(CO)CCC2)n1"
  Censor symbol: ">"
  TGI, µM: 100
- Molecule: "CCCCN1CN2C(=O)C(C(=O)OCC)C(=O)c3sc4nc(SC)nc1c4c32 (centres undefined)"
  Censor symbol: "="
  TGI, µM: 33.8
- Molecule: "COC(=O)c1cc2c3ccccc3n3c(=O)c4cc5ccccc5nc4c(n1)c23"
  Censor symbol: ">"
  TGI, µM: 100
- Molecule: "C=C(C#N)C1OCC2OC(C)(C)OC21 (centres undefined)"
  Censor symbol: "="
  TGI, µM: 30
- Molecule: "C=C(C)[C@@H]1CC[C@]2(C(=O)O)CC[C@]3(C)[C@H](CC[C@@H]4[C@@]5(C)CCC(NC(=O)c6cccc(OC(C)=O)c6OC(C)=O)C(C)(C)[C@@H]5CC[C@]43C)[C@@H]12 (some centres undefined)"
  Censor symbol: "="
  TGI, µM: 2.5
- Molecule: "CCN1C(=O)C(=C/C=C/C=C2/N(C)c3ccccc3C2(C)C)C(=O)N(CC)C1=S"
  Censor symbol: ">"
  TGI, µM: 100
- Molecule: "c1ccc(C2=NCCN2)c(C2=NCCN2)c1"
  Censor symbol: ">"
  TGI, µM: 100
- Molecule: "COc1cc2ncn(-c3cc(O[C@@H](C)c4ccccc4Cl)c(C(N)=O)s3)c2cc1OC"
  Censor symbol: ">"
  TGI, µM: 25
- Molecule: "CCN(CC)CCCNC(=O)C1COc2cc(-c3cc(=O)c4ccccc4o3)ccc2O1 (centres undefined)"
  Censor symbol: "="
  TGI, µM: 38.9
